Listing of recorded GI50 by entry.
- Test system: SNB-19
- Method Description: NCI tumour cell line growth inhibition, 48 h
Calls of active or inactive are those of the source. No stated cut-off is given here; in the data, active = GI50 up to about 1.1 µM and inactive = higher.
Reported Endpoint: GI50

O=C1NC2(NC(=O)C1=O)Nc1ccccc1S2: > 100 µM (inactive)
CO[C@@H]1O[C@H](C(=O)c2ccccc2)[C@H]2OC(C)(C)O[C@@H]12: > 100 µM (inactive)
Nc1ccc(/C=C/c2ccnc3ccccc23)cc1: 27.6 µM (inactive)
CN1C(=O)C2CCC(=O)N2c2cccnc21 (stereo unspecified): > 100 µM (inactive)
COc1ccc(/N=C/c2ccc(N(CCC#N)S(=O)(=O)c3ccccc3)cc2)cc1: > 100 µM (inactive)
NCS(=O)(=O)O: > 100 µM (inactive)
C=CCCCCCCCCCCCC1CCC(CC)N1 (stereo unspecified): 15.5 µM (inactive)
CC1(C)OC2C(CCP(=O)(O)O)OC(c3nc(C(N)=O)cs3)C2O1 (stereo unspecified): > 100 µM (inactive)
CC12C=C[C@]3(CC[C@@H]4[C@@](C)(CO)CCC[C@]4(C)C3CC1)C2 (stereo partly specified): 19.6 µM (inactive)
CC(C)(CN1CCCCC1)C(=O)/C=C/c1ccc(Br)cc1: 2.01 µM (inactive)
c1ccc2oc(-c3ccc(-c4nc5ccccc5o4)c4c3CC4)nc2c1: > 100 µM (inactive)
CSC(=S)NN=C1CCCCC1: 96.6 µM (inactive)
Nc1ccc(-c2ccc(Nc3cc(S(=O)(=O)O)c(N)c4c3C(=O)c3ccccc3C4=O)cc2)c(S(=O)(=O)O)c1: > 100 µM (inactive)
C=C(C)[C@H]1Cc2c(ccc3c2O[C@@H]2COc4cc(OC)c(OC)cc4[C@@H]2C3=O)O1 [ROTENONE]: 0.327 µM (active)
O=C(OC[C@H]1O[C@@H](OC(=O)c2cc(O)c(O)c(O)c2)[C@H](OC(=O)c2cc(O)c(O)c(O)c2)[C@@H](OC(=O)c2cc(O)c(O)c(O)c2)[C@@H]1OC(=O)c1cc(O)c(O)c(O)c1)c1cc(O)c(O)c(O)c1 [PENTAGALLOYL GLUCOSE]: 4.88 µM (inactive)
O=C(CSc1nc2ccc(Cl)cc2c(=O)n1-c1ccccc1)N/N=C1\C(=O)Nc2ccc(F)cc21: 2.97 µM (inactive)
C#CCOCn1cnc2c(S)ncnc21: > 100 µM (inactive)
NS(=O)(=O)c1ccc(NC(=S)NC=C2C(=O)c3ccccc3C2=O)cc1: > 100 µM (inactive)
C/C(=N\O)C(CN1CCCCC1)C(c1ccccc1)c1c(O)c2ccccc2oc1=O (stereo unspecified): > 100 µM (inactive)
Cc1nc(-c2cc3cc(Cl)ccc3oc2=O)cc2c1c(=O)oc1ccc(Cl)cc12: > 100 µM (inactive)
COc1ccc2c(c1)N(C(C)=O)CN1C(=O)CCC21 (stereo unspecified): > 100 µM (inactive)
